All figures here come from ChEMBL document CHEMBL1275285.

Property: inhibition in vivo at 40 mg/kg; scope: individual molecules
tested on: Rattus norvegicus; assay: Antiinflammatory activity in Sprague-Dawley rat assessed as inhibition of carrageenan-induced paw edema at 40 mg/kg, ip administered 1 hrs before carrageenan challenge relative to untreated control; format: functional; conditions: route intraperitoneal
Respond numerically; units are % and should not be typed.

# example entries with known answers
MOLECULE: CCN1CCN(Cn2nc(C34CC5CC(CC(C5)C3)C4)sc2=S)CC1
MEASURED ON: Rattus norvegicus
inhibition in vivo at 40 mg/kg / %: 10.6
--
MOLECULE: O=C(O)Cn1nc(C23CC4CC(CC(C4)C2)C3)sc1=S
MEASURED ON: Rattus norvegicus
inhibition in vivo at 40 mg/kg / %: 32.7
--
MOLECULE: S=c1sc(C23CC4CC(CC(C4)C2)C3)nn1Cc1ccccc1
MEASURED ON: Rattus norvegicus
inhibition in vivo at 40 mg/kg / %: 0.92
--
MOLECULE: O=C(O)CCn1nc(C23CC4CC(CC(C4)C2)C3)sc1=S
MEASURED ON: Rattus norvegicus
inhibition in vivo at 40 mg/kg / %: 36.8

We next turn to a different molecule, shown below.
Exam item: What does the record list as inhibition in vivo at 40 mg/kg for CC(C(=O)O)n1nc(C23CC4CC(CC(C4)C2)C3)sc1=S (racemic) ?
Marked response: 65.2
